// values below are reported change of melting temperature, mutant - wild type (higher = more stable)
B1: Lysozyme C, P61626 (parent)
chain: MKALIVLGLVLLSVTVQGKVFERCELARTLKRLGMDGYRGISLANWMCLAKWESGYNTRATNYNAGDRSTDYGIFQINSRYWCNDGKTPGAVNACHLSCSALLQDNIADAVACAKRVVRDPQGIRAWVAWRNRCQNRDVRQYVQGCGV

Variants of: B1
Details: Homo sapiens; pH 2.7; Thermal; DSC; glycine 0.05 M; reversible: yes; structure 1LZ1; whole UniProt chain shown
Assay Metric: change of melting temperature, mutant - wild type (higher = more stable)

>  <Seq Text>
MKALIVLGLVLLSVTVQGKVFERCELARTLKRLGMDGYRGISLANWMCLAKWESGYNTRATNYNAGDRSTDYGIFQINSRYWCNDGKTPGAVNACHLSCSALLQDNIADAVACAKRVVRDPQGARAWVAWRNRCQNRDVRQYVQGCGV [I124A]

>  <Assay Value>
-3 °C

$$$$
>  <Seq Text>
MKALIVLGLVLLSVTVQGKVFERCELARTLKRLGMDGYRGISLANWMCLAKWESGYNTRATNYNAGDRSTDYGIFQANSRYWCNDGKTPGAVNACHLSCSALLQDNIADAVACAKRVVRDPQGIRAWVAWRNRCQNRDVRQYVQGCGV [I77A]

>  <Assay Value>
-5.2 °C

$$$$
>  <Seq Text>
MKALIVLGLVLLSVTVQGKVFERCELARTLKRLGMDGYRGISLANWMCLAKWESGYNTRATNYNAGDRSTDYGIFQGNSRYWCNDGKTPGAVNACHLSCSALLQDNIADAVACAKRVVRDPQGIRAWVAWRNRCQNRDVRQYVQGCGV [I77G]

>  <Assay Value>
-12.7 °C

$$$$
>  <Seq Text>
MKALIVLGLVLLSVTVQGKVFERCELARTLKRLGMDGYRGASLANWMCLAKWESGYNTRATNYNAGDRSTDYGIFQINSRYWCNDGKTPGAVNACHLSCSALLQDNIADAVACAKRVVRDPQGIRAWVAWRNRCQNRDVRQYVQGCGV [I41A]

>  <Assay Value>
-8.1 °C

$$$$
>  <Seq Text>
MKALIVLGLVLLSVTVQGKVFERCELARTLKRLGMDGYRGISLANWMCLAKWESGYNTRATNYNAGDRSTDYGIFQINSRYWCNDGKTPGAVNACHLSCSALLQDNAADAVACAKRVVRDPQGIRAWVAWRNRCQNRDVRQYVQGCGV [I107A]

>  <Assay Value>
-8.7 °C

$$$$
